System: SK-MEL-2
method.notes: NCI tumour cell line growth inhibition, 48 h
Active and inactive are the calls of the source. Cut-off read from the data, not from the text of the source: active = GI50 up to about 1.1 µM and inactive = higher.
test.readout: GI50

Input line: Give recorded GI50. O=C1CCC2(O)c3ccccc3C2Cc2ccccc21 (stereo not given)
Output line: > 100 µM (inactive)

Input line: Indicate the recorded GI50 value for this compound: `CCOC(=O)c1c(CN2CCNCC2)nc2ccccc2c1-c1ccccc1`
Output line: 15.6 µM (inactive)

Input line: Respond only with GI50 recorded for `COc1cc(NCc2ccc3nc(N)nc(N)c3c2C)cc(OC)c1OC`
Output line: 17.9 µM (inactive)

Input line: Find the measured GI50 of `O=Cc1ccc(OCc2cccc(COc3ccc(/C=N\Nc4ccc([N+](=O)[O-])cc4[N+](=O)[O-])cc3)n2)cc1` and report it.
Output line: 89.5 µM (inactive)

Input line: Answer with reported GI50 of `CCOC(=O)N1CCC2(CC1)CC(=O)N(Nc1ccccc1)C2=O`
Output line: > 100 µM (inactive)

* * *

Test system: SK-MEL-2
method.notes: NCI tumour cell line growth inhibition, 48 h
Activity calls are given as the source filed them. Rule as the data show it: active = GI50 up to about 1.1 µM and inactive = higher. Where a SMILES comes first, the peptide text is derived from it. The star is where a group is joined. Fmoc = O=C(OCC1c2ccccc2-c2ccccc21)*; Boc = CC(C)(C)OC(=O)*
test.readout: GI50

Input line: Provide GI50 value for the following compound: CC(=O)Nc1ccc2c3c(cc(O)c2c1)N(C(=O)CCCCC(=O)N1CC(CCl)c2c1cc(O)c1cc(NC(C)=O)ccc21)CC3CCl (centres undefined)
Output line: 0.144 µM (active)

Input line: Determine from records and report GI50 for `C/C(=C(/C)c1ccc(O)cc1)c1ccc(O)cc1`
Output line: 10 µM (inactive)

Input line: Quote GI50 reported for `CCOC(=O)N/N=C(\CC)OCC` please.
Output line: > 100 µM (inactive)

Input line: Give me measured GI50, please, for this compound: Cc1cccc(N2C(=O)C3c4[nH]c5ccccc5c4C4CCC(C(C)(C)C)CC4C3C2=O)c1C (centres undefined)
Output line: > 100 µM (inactive)

Input line: Determine from records and report GI50 for Cc1nnc(N/N=C(/C(=O)C(C#N)c2ccc(Cl)cc2)C(C#N)c2ccc(Cl)cc2)n1N (centres undefined)
Output line: 18.2 µM (inactive)

Input line: Supply GI50 value. Item: `O=c1nc(N2CCNCC2)oc2cc(Cl)oc(=O)c12`
Output line: 8.49 µM (inactive)

Input line: Answer with the recorded GI50 of O=C1CS(=O)(=O)C(c2cccc(Oc3ccccc3)c2)N1c1cccc(Cl)c1 (centres undefined) only.
Output line: 16.3 µM (inactive)

Input line: Return the recorded GI50 value; entry: CCOP(=O)(OCC)C(Cc1ccccc1)N=C(c1ccccc1)c1ccccc1 (centres undefined)
Output line: 18.2 µM (inactive)

Input line: Name the recorded GI50 of the compound listed here: `CN(C)CCSc1cc(-c2ccccc2)c2ccccc2n1`
Output line: 14.2 µM (inactive)

Input line: For the compound `COc1cc2cc3c4c(cc(OC)c(OC)c4c2cc1OC)CCN3C(=O)CCCC(=O)O` , give its reported GI50.
Output line: > 100 µM (inactive)

Input line: Give me measured GI50, please, for this compound: Cc1ccccc1OC(C)C(=O)NN1C(=O)CC(=O)NC1=S (centres undefined)
Output line: > 100 µM (inactive)

Input line: Supply GI50 value. Item: `Cc1ccc2c(c1)C(=O)/C(=C\c1ccc(Cl)cc1)CCS2(=O)=O`
Output line: 19.4 µM (inactive)

Input line: Answer with the recorded GI50 of COC(=O)C1Cc2c([nH]c3ccccc23)-c2[nH]c3ccccc3c2CC(NC(C)=O)C(=O)NCC(=O)N1 (centres undefined) only.
Output line: > 100 µM (inactive)

Input line: Could you please provide reported GI50 for CSc1nc2c(c(O)c(C)c(=O)n2C2OCC(OC(C)=O)C(OC(C)=O)C2OC(C)=O)c(=O)n1C (centres undefined) ? Thanks!
Output line: > 100 µM (inactive)

Input line: Report measured GI50; entry is `CC1(C)NC(=O)N(CCCCCCN2C(=O)NC(C)(C)C2=O)C1=O`
Output line: > 100 µM (inactive)

Input line: Please give measured GI50 of the following entry: CC(=O)NC1C(OC2C(CO)OC(OCC3OC(n4ccc(N)nc4=O)C(O)C3O)C(NC(C)=O)C2O)OC(CO)C(O)C1O (centres undefined)
Output line: > 100 µM (inactive)

Input line: Dear colleague, please send me the reported GI50 for `CC(C)(C)OC(=O)N1C[C@H](CC(=O)OCc2ccccc2)C[C@H]1C(=O)OCC(Cl)(Cl)Cl` when you can.
Output line: 6.7 µM (inactive)

Input line: # return recorded GI50 for input `c1ccc2c(c1)ccc1nc(-c3ccc4c(c3)OCO4)c3c(c12)CCCC3`
Output line: 23.2 µM (inactive)

Input line: Report GI50, nothing else, for this compound: CC(C)(C)OC(=O)NCCCCC(NC(=O)C(Cc1c[nH]c2ccccc12)NC(=O)OCC1c2ccccc2-c2ccccc21)C(=O)O (centres undefined) (Fmoc-Trp-Lys(Boc)-OH; configuration not given here)
Output line: 23.1 µM (inactive)
